Data provenance: PubChem BioAssay (NCI)

I'd be grateful if you could share measured GI50 for these entries.
# System: NCI-H23 lung
# assay_notes: NCI tumour cell line growth inhibition, 48 h

Look at this compound and give its reported GI50. COc1ccc(CN2CCc3c(Sc4ccccc4)nc(N)nc3C2=O)c(OC)c1
4.06 µM

Next entry: CC(C)(C)CC(C)(C)c1ccc(OCCSC(=N)N)cc1
1.81 µM

Next entry: CSc1nn2c(-c3ccc4ccccc4c3)ccnc2c1C#N
2.04 µM

Next entry: Nc1nc2cc(-c3ccc4ncc(C(=O)N5CCOCC5)n4c3)ccc2o1
6.58 µM

Next entry: CCC(CC)COC(=O)[C@H](C)N[P@](=O)(OC[C@H]1O[C@@](C#N)(c2ccc3c(N)ncnn23)[C@H](O)[C@@H]1O)Oc1ccccc1
2.59 µM

Next entry: COC(=O)c1c2c(c(C)[n+]([O-])c1C)C(=O)C(NCc1cccc(Cl)c1)=CC2=O
1.23 µM

Next entry: C=C1C(=O)O[C@H]2[C@H]1CC/C(COC(=O)NCc1ccc(Cn3c(=O)sn(CCI)c3=O)cc1)=C\CC[C@@]1(C)O[C@@H]21
3.46 µM

Next entry: CCCCCCCCCCCCCCCCNC(=O)OC(C)C
3.04 µM

Next entry: Cc1nn(-c2ccccc2)c(-n2ccnc2)c1/C=N/Nc1nc(-c2ccc(Cl)c(Cl)c2)cs1
1.94 µM

Next entry: CN1CCN(Cc2ccc(NC(=O)c3cnc(F)c(C#Cc4cnc(N)c5ncccc45)c3)cc2C(F)(F)F)CC1
0.485 µM

Next entry: CCCCN(CCCC)CC(O)c1ccc(OCc2ccccc2)c2ccccc12 (configuration not stated)
3.01 µM

Next entry: Oc1ccc(/C=C/c2ccc(O)cc2)cc1
3.82 µM

Next entry: CN(C)c1ccc(O)c2c1CC1CC3C(N(C)C)C(=O)C(C(N)=O)=C(O)C3(O)C(=O)C1=C2O (configuration not stated)
15.2 µM

Next entry: CC(=O)OCC1OC(OC2CCCC[Si](c3ccccc3)(c3ccccc3)O2)C(OC(C)=O)C(OC(C)=O)C1OC(C)=O (configuration not stated)
> 100 µM

Next entry: Cc1ccc(NS(=O)(=O)c2ccc(-c3cnc(C4CC4)o3)cc2)cc1C
1.13 µM

Next entry: C=C1C(=O)O[C@H]2[C@H]1CC/C(COC(=O)NCc1[nH]nc3ccccc13)=C\CC[C@@]1(C)O[C@@H]21
2.19 µM

Next entry: CCCCSSC(=S)N(CC)CC
> 100 µM

* * *

# Tested on: SW-620 colon
# assay_notes: NCI tumour cell line growth inhibition, 48 h
I'd be grateful if you could share measured TGI for these entries.

Look at this molecule and give its reported TGI. CC1CCC(C(C)C2C(O)CC3C4CC=C5CC(O)CCC5(C)C4CCC32C)NC1 (stereo not drawn)
> 100 µM

Next entry: CCCn1c2c(c3ccccc3c1=O)C(=O)c1cc3c(cc1-2)OCO3
> 100 µM

Next entry: C=CCCC(=O)N1CCC(C(=O)OCC)C1=O (stereo not drawn)
> 100 µM

* * *

# Tested on: SK-MEL-5 melanoma
# assay_notes: NCI tumour cell line growth inhibition, 48 h
I'd be grateful if you could share measured TGI for these entries.

Look at this molecule and give its reported TGI. CNc1ccc(S(=O)Nc2ccc(OC)cc2)cc1 (stereo not drawn)
> 100 µM

Next entry: COC(=O)c1sc(=O)n(-c2ccccc2)c1SCc1ccccc1
> 100 µM

Next entry: CCP(=S)(CC)CCl
> 100 µM

* * *

# Tested on: OVCAR-5 ovarian
# assay_notes: NCI tumour cell line growth inhibition, 48 h
I'd be grateful if you could share measured GI50 for these entries.

Look at this compound and give its reported GI50. Cc1nnc([S-])o1.[Au+].c1ccc([PH+](c2ccccc2)c2ccccc2)cc1
1.82 µM

Next entry: CCCn1c2c(c3ccccc3c1=O)C(=O)c1cc3c(cc1-2)OCO3
> 100 µM

Next entry: CCCCSSC(=S)N(CC)CC
36.4 µM

Next entry: Oc1ccc(/C=C/c2ccc(O)cc2)cc1
28.9 µM

Next entry: O=C1c2ccc3c4c(ccc(c24)C(=O)N1CCCNCc1ccccc1F)C(=O)N(CCCNCc1ccccc1F)C3=O
0.2 µM

Next entry: O=C(NNC(=O)C1CCN(S(=O)(=O)c2ccc(-c3ccccc3)cc2)CC1)c1ccc(C(F)(F)F)cc1
> 50 µM

Next entry: O=C(C(Br)C(Br)c1ccccc1)C(Br)C(Br)c1ccccc1 (stereo not drawn)
1.57 µM

Next entry: NS(=O)(=O)c1ccc(Nc2ncc(-c3ccccc3)o2)cc1
> 25 µM

Next entry: COC(=O)c1c2c(c(C)[n+]([O-])c1C)C(=O)C(NCc1cccc(Cl)c1)=CC2=O
1.81 µM

Next entry: O=[N+]([O-])c1cccc2nc3ccccc3c(NCCO)c12
0.000703 µM

Next entry: COc1ccc(/C=C2\CS(=O)(=O)C/C(=C\c3ccc(OC)cc3)C2=O)cc1
3.16 µM

Next entry: CCCCC/C=C/C(=O)CCc1ccc(O)c(OC)c1
16.2 µM

Next entry: CCOC(=O)c1ccc(NC(=O)Nc2nccs2)cc1
1.1 µM

* * *

# System: CAKI-1 renal
# assay_notes: NCI tumour cell line growth inhibition, 48 h
I'd be grateful if you could share measured GI50 for these entries.

Look at this compound and give its reported GI50. Oc1ccc(/C=C/c2ccc(O)cc2)cc1
3.5 µM

Next entry: Cn1cc(C2=C(c3cn(C)c4cc(C(=O)O)ccc34)C(=O)NC2=O)c2ccccc21
> 17.2 µM

Next entry: N#Cc1c(-c2ccccc2)n([O-])c2ccccc2[n+]1=O
20.1 µM

Next entry: CN(C)c1ccc(O)c2c1CC1CC3C(N(C)C)C(=O)C(C(N)=O)=C(O)C3(O)C(=O)C1=C2O (stereo not given)
5.74 µM

Next entry: O=C(NNC(=O)C1CCN(S(=O)(=O)c2ccc(-c3ccccc3)cc2)CC1)c1ccc(C(F)(F)F)cc1
> 50 µM

* * *

# Test system: MDA-MB-435
# assay_notes: NCI tumour cell line growth inhibition, 48 h
I'd be grateful if you could share measured TGI for these entries.

Look at this molecule and give its reported TGI. CCCn1c2c(c3ccccc3c1=O)C(=O)c1cc3c(cc1-2)OCO3
> 100 µM

Next entry: Nc1ccc2nc3ccc(=O)cc-3n(-c3ccccc3)c2c1
> 100 µM

Next entry: [N-]=[N+]=NC1=CC(=O)c2cccc3cccc1c23
> 100 µM

Next entry: CCN(CC)c1ncnc2c1ncn2CCNC(CO)(CO)CO
> 100 µM

Next entry: C=C(C)[C@@H]1C/C=C(\COC(=O)[C@H](OC(C)=O)C(NC(=O)c2ccccc2)c2ccccc2)CC[C@H]2O[C@]2(C)CC/C=C(\C)CC1 (stereo partly specified)
> 50 µM

Next entry: Fc1cc(-c2cc(-c3ccccc3)n[nH]2)c(Cl)cc1Cl
> 100 µM

Next entry: CCCCCCCCNC(=O)C1=C(C)NC(C)=C(C(=O)NCCCCCCCC)C1
> 100 µM

Next entry: COc1c(-c2nc3nc(N4CCN(C)CC4)ccc3[nH]2)cc(OC)c2c1nc(CO)n2C
> 100 µM

Next entry: Cc1nn(-c2ccccc2)c(-n2ccnc2)c1/C=N/Nc1nc(-c2ccc(Cl)c(Cl)c2)cs1
> 100 µM

Next entry: Cc1cccc(NC(=S)Nc2ccc(Cl)cc2)n1
> 100 µM

Next entry: CC1(C)N([O-])[N+](=O)C1(C)Br (stereo unspecified)
> 100 µM

Next entry: CC1(C)C[C@H]2[C@H](O)C(CO)=C3C(=O)[C@@H](O)[C@]3(C)[C@H]2C1
> 100 µM

Next entry: C=CC(O)C#Cc1cnc(OC)nc1OC (stereo unspecified)
> 100 µM

Next entry: CC(C)(C)C1=NC(=S)SC2=NC(=O)C3(NN21)c1ccccc1-c1ccccc13
> 10 µM

Next entry: COc1ccc2c(c1)CC[C@@H]1[C@@H]2CC[C@]2(C)C(c3ccsc3)=C(/C=C/C(=O)c3ccccc3)C[C@@H]12
> 100 µM

Next entry: Cn1c2ccccc2c(=NNc2ccc(S(N)(=O)=O)cc2)c2ccccc21
> 50 µM

Next entry: CC(=O)OCC1OC(NC(=S)CCSc2nc3ccccc3c(=O)n2-c2ccccc2)C(OC(C)=O)C(OC(C)=O)C1OC(C)=O (stereo unspecified)
> 100 µM

Next entry: O=C(NNC(=O)C1CCN(S(=O)(=O)c2ccc(-c3ccccc3)cc2)CC1)c1ccc(C(F)(F)F)cc1
> 50 µM

Next entry: O=c1[nH]c2cc(Cl)ccc2nc1/C(=N/Nc1ccccc1)C(O)c1ccco1 (stereo unspecified)
> 100 µM

Next entry: CC(=O)c1c(-c2ccco2)c(C#N)c(=S)n(C2OC(CO)C(O)C(O)C2O)c1-c1ccccc1 (stereo unspecified)
> 100 µM

Next entry: Cc1c(C(=O)C(=O)c2ccccc2)c(C)c(C(=O)C(=O)c2ccccc2)c(C)c1C(=O)C(=O)c1ccccc1
> 100 µM
